Test system: Septoria tritici
Assay: Fungicidal activity: leaf blotch of wheat, one-day protectant and three-day curative tests on wheat plants
Format: in vivo
Details: Zymoseptoria tritici, 24 h; One-Day Protectant (1 DP), 100 ppm, wheat plants (variety Yuma); read-out: SEPTTR 100 PPM 1 DP (% Disease Control rating)
Measured pest or weed control at 100 ppm, listed per entry.

Known pest or weed control at 100 ppm results, listed for orientation:
molecularString	quantityName	result
C/N=c1\c(F)cn(S(=O)(=O)c2ccccc2)c(=O)n1C	pest or weed control at 100 ppm	76 to 100%
CCc1ccc(S(=O)(=O)n2cc(F)/c(=N\C(=O)OC)n(C)c2=O)cc1	pest or weed control at 100 ppm	0 to 25%
[2H]C([2H])([2H])/N=c1\c(F)cn(S(=O)(=O)c2ccccc2)c(=O)n1C([2H])([2H])[2H]	pest or weed control at 100 ppm	0 to 25%

Next compound, please.
Please provide the recorded pest or weed control at 100 ppm for C/N=c1\c(F)cn(S(=O)(=O)c2c(C)cc(C)cc2C)c(=O)n1C , tested on Septoria tritici.
26 to 50%
